The measurements presented in this section are drawn from PubChem BioAssay AID588342.

Target: Luciferin 4-monooxygenase (Photinus pyralis) (UniProt P08659)
Sequence (P08659 whole entry, looked up): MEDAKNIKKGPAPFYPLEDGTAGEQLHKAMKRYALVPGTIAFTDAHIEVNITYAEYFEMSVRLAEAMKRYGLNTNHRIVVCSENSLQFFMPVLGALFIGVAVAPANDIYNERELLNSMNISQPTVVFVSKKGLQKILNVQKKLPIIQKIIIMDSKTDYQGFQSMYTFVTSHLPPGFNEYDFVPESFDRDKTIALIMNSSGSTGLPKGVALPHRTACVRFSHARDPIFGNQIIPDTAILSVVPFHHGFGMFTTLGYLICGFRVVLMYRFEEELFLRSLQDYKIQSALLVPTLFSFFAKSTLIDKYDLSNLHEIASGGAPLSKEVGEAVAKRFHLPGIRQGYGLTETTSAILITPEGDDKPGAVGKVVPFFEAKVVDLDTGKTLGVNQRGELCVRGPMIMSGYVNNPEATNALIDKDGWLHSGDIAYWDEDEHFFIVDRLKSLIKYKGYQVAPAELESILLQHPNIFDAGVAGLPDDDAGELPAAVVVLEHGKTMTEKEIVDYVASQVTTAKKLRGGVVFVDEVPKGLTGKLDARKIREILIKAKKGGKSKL
Experiment: qHTS profiling assay for firefly luciferase inhibitor/activator using purifed enzyme and Km concentrations of substrates (counterscreen for miR-21 project); also: nearly all actives have a fitted effect of over 55% in size
Conditions: purified FLuc, luminescence inhibition; series mostly up to 57.5 µM
Text: MLPCN Grant: 1 R21 NS059478-01 (miR-21 grant) Assay Provider: NCGC NCGC Assay Overview: Firefly (Photinus pyralis) luciferase is one of the most commonly used transcriptional reporters for a number of reasons. […] Although light produced in a bioluminescence reaction is of lower intensity than that produced during fluorescence emission, this is offset by little to no background light inherent to luminescent assays. […]
Hit rate of the full screen: of about 360,000 compounds, about 25,000 (6.9%) were called active. Another 9% or so got no clear call; they are omitted. Calls follow the shape of the dose curve; as a rule, active = well fitted inhibition curve with a large enough effect; inconclusive = small, poorly fitted or top-dose-only effect; inactive = flat fitted curve, though single readings scatter. For the sample, actives were picked, then their nearest neighbours and some compounds at random.
Outcomes: yes (1) = active, no (0) = inactive

1. Nc1nnc(SCC(=O)NCC(=O)Nc2ccc(F)c(F)c2F)s1 ... no (0)
2. COc1ccc2c(c1)CCc1c(C(=O)Nc3c(C)n(C)n(-c4ccccc4)c3=O)noc1-2 ... yes (1)
3. Cc1ccc2cc(C#N)c(SCC(=O)NCC3CCCO3)nc2c1C (stereo unspecified) ... no (0)
4. CCOc1ccc2oc(C(=O)N(CC)CC(=O)Nc3ccc(NC(C)=O)cc3)c(C)c2c1 ... no (0)
5. CCN(C(=O)CSc1nnc(-c2ccc(OC(F)F)cc2)n1N)C1CCS(=O)(=O)C1 (stereo unspecified) ... no (0)
6. O=C(c1cc(-c2ccc(Cl)cc2)on1)N1CCN(c2ccccc2)CC1 ... yes (1)
7. CC1CCCN(Cc2c(O)ccc3c(=O)c(Oc4ccc(C(C)(C)C)cc4)c(C(F)(F)F)oc23)C1 (stereo unspecified) ... no (0)
8. CCCCn1cc(S(=O)(=O)c2ccc(OCC)cc2)c(=O)c2cc(OC)c(OC)cc21 ... no (0)
9. Cc1ccccc1CSc1nc2c([nH]c3ccccc32)c(=O)n1C ... no (0)
10. O=C(c1ccc(Cl)c([N+](=O)[O-])c1)N1CCN(c2ccccc2)CC1 ... no (0)
11. O=C(Cc1cc(=O)[nH][nH]1)N/N=C/c1ccccc1[N+](=O)[O-] ... no (0)
12. CCOC(=O)c1c(NC(=O)CCl)sc(C(=O)N(CC)CC)c1C ... no (0)
13. COc1ccc2c(c1)CCc1c(C(=O)N3CCCC3)noc1-2 ... yes (1)
14. COc1ccc(NC(=O)N2CCCC2C(=O)NCc2ccccc2Cl)cc1 (stereo unspecified) ... no (0)
15. Cc1c(NC(=O)c2cc(-c3ccc(Br)cc3)on2)c(=O)n(-c2ccccc2)n1C ... no (0)
16. COc1ccccc1N1CC(C(=O)Nc2nnc(SCC(=O)NCC3CCCO3)s2)CC1=O (stereo unspecified) ... no (0)
17. COc1ccc(-c2nc(S(=O)(=O)c3ccccc3)c(N3CCCCC3)o2)cc1 ... no (0)
18. Cc1cc(Nc2ccc(N3CCOCC3)cc2)c2cccc(C)c2n1 ... no (0)
19. O=c1c2c(ncn1Cc1ccccc1)nc1n2CCC1 ... no (0)
20. COc1cc(OC)c(N(C)C(=O)c2cc3c(=O)oc4ccccc4c3s2)cc1Cl ... no (0)
21. COc1ccc(S(=O)(=O)NC(C)C(=O)N2CCCCCC2)cc1 (stereo unspecified) ... no (0)
